B1: CPEB3 Ribozyme (parent)
chain: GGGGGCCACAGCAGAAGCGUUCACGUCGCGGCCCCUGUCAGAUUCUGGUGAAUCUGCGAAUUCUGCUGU

variants of: B1; assay: self-cleavage, relative activity (ratio to wild type); higher = more cleavage; co-transcriptional
Param threshold (0.5) applies to self-cleavage; output Fulfilled when value >= threshold, Not fulfilled when value < threshold.

Decide: self-cleavage of A40G A60G >= 0.5?
Fulfilled

Hello, I need to know if C34U A52U has measured self-cleavage not below 0.5. Thanks!
Fulfilled

Textbook exercise: given the entry G3U U21C , state whether its self-cleavage is greater than or equal to 0.5.
Not fulfilled

I'd appreciate it if you could say whether C34U U49C has self-cleavage at least equal to 0.5.
Fulfilled

State whether the measured self-cleavage reaches 0.5, counting equality as reaching it, for G11C U26G
Not fulfilled

Item C54U U67G with self-cleavage of 0.5 or above?
Fulfilled

Determine whether measured self-cleavage meets or exceeds 0.5 for A15G G30U
Not fulfilled

Record C18A U46A ; criterion: self-cleavage no lower than 0.5. Met?
Not fulfilled

Kindly determine if self-cleavage recorded for C22U G28A is above or exactly 0.5.
Not fulfilled

Is reported self-cleavage greater than or equal to 0.5 here: G48C U53G
Fulfilled

Item C24G C66A with self-cleavage of 0.5 or above?
Not fulfilled

Entry U20G U62G : is its self-cleavage no less than 0.5?
Not fulfilled

Is the recorded value of self-cleavage equal to or greater than 0.5 for this variant? G3C G30A
Not fulfilled

I'd appreciate it if you could say whether C7G A60G has self-cleavage at least equal to 0.5.
Not fulfilled

Determine whether measured self-cleavage meets or exceeds 0.5 for G48U C63A
Fulfilled

Say whether G1A G41C shows self-cleavage of 0.5 or more.
Not fulfilled

Hi, just wondering whether A40U U64A shows self-cleavage of 0.5 or higher.
Not fulfilled

Answer whether self-cleavage of C18G U64A is greater than or equal to 0.5.
Not fulfilled

Form field: self-cleavage at least 0.5? Entry: C12A A59G
Fulfilled

Could you tell me if the measured self-cleavage of A23U reaches 0.5 or more?
Fulfilled

Dear colleague, could you confirm whether A15U C18U has self-cleavage at or above 0.5?
Not fulfilled

Identify whether the reported self-cleavage of the following variant is 0.5 or greater: A8G C66A
Not fulfilled

Reported self-cleavage reaches at least 0.5 for C18G G19A ?
Not fulfilled

Reported self-cleavage reaches at least 0.5 for C12A U62G ?
Not fulfilled

Could you verify whether the entry G30U G48U shows self-cleavage of no less than 0.5?
Not fulfilled

Given the entry U20C U38A , answer whether its self-cleavage meets or surpasses 0.5.
Not fulfilled

hey, is self-cleavage for this one >= 0.5? A8C G30A
Fulfilled

Reported self-cleavage reaches at least 0.5 for G41U A59G ?
Fulfilled

Quick check: does G3A A15G have self-cleavage greater than or equal to 0.5?
Fulfilled

Item G11U with self-cleavage of 0.5 or above?
Fulfilled

Hello, I need to know if A52U U53G has measured self-cleavage not below 0.5. Thanks!
Fulfilled

Say whether C45A C54G shows self-cleavage of 0.5 or more.
Fulfilled

In plain terms: is recorded self-cleavage at least 0.5 for A23U U61G ?
Fulfilled

Does G5A A40G have a reported self-cleavage of at least 0.5?
Fulfilled

Answer whether self-cleavage of C12A C54A is greater than or equal to 0.5.
Not fulfilled

Check this variant for self-cleavage at or above 0.5: G11U A40C
Not fulfilled

Identify whether the reported self-cleavage of the following variant is 0.5 or greater: G2A C54A
Not fulfilled

Confirm if self-cleavage reported for the variant C6U G31C is 0.5 or above.
Fulfilled

Entry U26A G37C : is its self-cleavage no less than 0.5?
Not fulfilled

Hi, just wondering whether C39A G50U shows self-cleavage of 0.5 or higher.
Fulfilled

Threshold query (self-cleavage >= 0.5) on G5A U64C
Fulfilled

I'd appreciate it if you could say whether G3C A52C has self-cleavage at least equal to 0.5.
Not fulfilled

Could you tell me if the measured self-cleavage of C6A U46G reaches 0.5 or more?
Fulfilled

Answer whether self-cleavage of A13G C57U is greater than or equal to 0.5.
Not fulfilled

Quick check: does A52G G65A have self-cleavage greater than or equal to 0.5?
Fulfilled

Has C39G U61G a recorded self-cleavage greater than or equal to 0.5?
Fulfilled

Could you verify whether the entry C57U U62A shows self-cleavage of no less than 0.5?
Not fulfilled

Hi team, for U46A C66A , is the recorded self-cleavage at or above 0.5?
Fulfilled

Decide: self-cleavage of A51G G68C >= 0.5?
Fulfilled

API: above_or_equal(metric=self-cleavage, cutoff=0.5) for item A16G G30U
Not fulfilled

Check if self-cleavage >= 0.5 (inclusive). Item: U21A U26A
Fulfilled

Could you verify whether the entry A60C U61G shows self-cleavage of no less than 0.5?
Not fulfilled

Reported self-cleavage reaches at least 0.5 for C45U G68C ?
Fulfilled

Is self-cleavage for U46C G68C at or above 0.5?
Fulfilled

hey, is self-cleavage for this one >= 0.5? A15U U64G
Fulfilled

API: above_or_equal(metric=self-cleavage, cutoff=0.5) for item C39G G58A
Fulfilled

Does the reported self-cleavage for U49A C63A fall at or above the 0.5 mark?
Fulfilled

Reported self-cleavage reaches at least 0.5 for U21C A52C ?
Fulfilled

# bool: self-cleavage of A23G G48U >= 0.5
Fulfilled

Test whether the variant G56C U67C records self-cleavage of 0.5 or higher.
Fulfilled

Is the recorded value of self-cleavage equal to or greater than 0.5 for this variant? G2A U38A
Not fulfilled

Record G5C C33G ; criterion: self-cleavage no lower than 0.5. Met?
Not fulfilled

Textbook exercise: given the entry C54A C57U , state whether its self-cleavage is greater than or equal to 0.5.
Not fulfilled

Is self-cleavage at least 0.5? Consider G1A C34G
Not fulfilled

Decide: is the reported value of self-cleavage for G1U G65U equal to or greater than 0.5?
Not fulfilled

Tell me whether self-cleavage is at least 0.5 here: C22U G31U
Not fulfilled

Could you please find out whether C34A U64C has self-cleavage that meets 0.5 or exceeds it?
Fulfilled

Is the recorded value of self-cleavage equal to or greater than 0.5 for this variant? G25C C34A
Not fulfilled

Test whether the variant C24U U61G records self-cleavage of 0.5 or higher.
Not fulfilled

Quick check, self-cleavage >= 0.5? C54A U67A
Fulfilled

Form field: self-cleavage at least 0.5? Entry: C7A G30C
Fulfilled

Please check the record A23G G68A and state if its self-cleavage is at or above 0.5.
Fulfilled

Dear colleague, could you confirm whether G11C C12A has self-cleavage at or above 0.5?
Fulfilled

Tell me whether self-cleavage is at least 0.5 here: G50C C66A
Fulfilled

Determine whether this variant has self-cleavage no lower than 0.5: G1U C34A
Not fulfilled

Reported self-cleavage reaches at least 0.5 for C24A C32U ?
Fulfilled

Is self-cleavage at least 0.5? Consider C6A C9A
Fulfilled

Hi team, for C34U C45G , is the recorded self-cleavage at or above 0.5?
Fulfilled

API: above_or_equal(metric=self-cleavage, cutoff=0.5) for item G17A C57U
Not fulfilled

Is the recorded value of self-cleavage equal to or greater than 0.5 for this variant? U43A U44A
Fulfilled

self-cleavage >= 0.5 for G17U U44C ?
Not fulfilled

// inclusive: self-cleavage at least 0.5? input: G30U U46A
Not fulfilled

Check this variant for self-cleavage at or above 0.5: G19C U44A
Not fulfilled

Entry G17C C24A : is its self-cleavage no less than 0.5?
Not fulfilled

Could you tell me if the measured self-cleavage of U38C G58U reaches 0.5 or more?
Fulfilled

Reported self-cleavage reaches at least 0.5 for G17U C54G ?
Not fulfilled

Is self-cleavage at least 0.5? Consider G30A C66G
Fulfilled

Cited source for all entries: the RNAGym collection of RNA variant scans (doi:10.7554/elife.80360)
